# protocol notes: Evaluated in vitro for the Cytotoxic activity in the L1210 cell culture screen at 10 uM Maximum cell kill in a 72-h period
# Assay type: cell-based
# conditions: mouse, L1210 cells; read-out: Inhibition
Just a reminder that ties go to false: only cytotoxicity at 72 h, 10 µM strictly below 70% counts as true.

compound	class name
O=c1[nH]c(=O)n(C2CCCS2)cc1F (stereo unspecified)	true
O=c1[nH]c(=O)n(C2CCCS2(=O)=O)cc1F (stereo unspecified)	false
O=c1[nH]cc(F)c(=O)[nH]1	false
O=C1CCCC1n1cc(F)c(=O)[nH]c1=O (stereo unspecified)	true
O=c1[nH]c(=O)n(C2CCCO2)cc1F (stereo unspecified)	true
O=c1[nH]c(=O)n(C2CCC[S+]2[O-])cc1F (stereo unspecified)	false

----------
# protocol notes: Evaluated in vitro for the Cytotoxic activity in the L1210 cell culture screen at 1 uM Maximum cell kill in a 72-h period
# Type: cell-based
# conditions: mouse, L1210 cells; read-out: Inhibition
Each entry below carries its recorded cytotoxicity at 72 h, 1 µM.

compound	cytotoxicity at 72 h, 1 µM
O=c1[nH]c(=O)n(C2CCCS2)cc1F (stereo unspecified)	16.9%
O=c1[nH]c(=O)n(C2CCCO2)cc1F (stereo unspecified) [TEGAFUR]	17.2%
O=c1[nH]c(=O)n(C2CCCS2(=O)=O)cc1F (stereo unspecified)	59.2%
O=C1CCCC1n1cc(F)c(=O)[nH]c1=O (stereo unspecified)	40%
O=c1[nH]c(=O)n(C2CCC[S+]2[O-])cc1F (stereo unspecified)	64.9%
O=c1[nH]cc(F)c(=O)[nH]1 [FLUOROURACIL]	79.8%

----------
Each entry below carries its recorded Average survived.
# Tested on: P388
# protocol notes: Average days survival of female CDF1 mice bearing lymphocytic leukemia, when 10 E-6 tumor cells were injected intraperitoneally, dosed for 9 days at 20 mg/kg.
# Format: functional, Mus musculus
# conditions: route intraperitoneal

compound	target or test system	quantity unit	Average survived
O=c1[nH]c(=O)n([C@H]2C[C@H](O)[C@@H](CO)O2)cc1F [FLOXURIDINE]	P388	days	15.17
O=c1[nH]c(=O)n(C2CCC[S+]2[O-])cc1F (configuration not stated)	P388	days	14.5
O=c1[nH]c(=O)n(C2CCCS2)cc1F (configuration not stated)	P388	days	10.17
O=c1[nH]cc(F)c(=O)[nH]1 [FLUOROURACIL]	P388	days	17.6
O=c1[nH]c(=O)n(C2CCCO2)cc1F (configuration not stated) [TEGAFUR]	P388	days	10
O=c1[nH]c(=O)n(C2CCCS2(=O)=O)cc1F (configuration not stated)	P388	days	12.17
O=C1CCCC1n1cc(F)c(=O)[nH]c1=O (configuration not stated)	P388	days	10.5

----------
# protocol notes: Evaluated in vitro for the Cytotoxic activity in the L1210 cell culture screen at 100 uM Maximum cell kill in a 72-h period
# Type: cell-based
# conditions: mouse, L1210 cells; read-out: Inhibition
Each entry below carries its recorded cytotoxicity at 72 h, 100 µM.

molecule	cytotoxicity at 72 h, 100 µM
O=c1[nH]c(=O)n(C2CCCS2)cc1F (stereo not given)	68.5%
O=c1[nH]c(=O)n(C2CCC[S+]2[O-])cc1F (stereo not given)	84.5%
O=c1[nH]cc(F)c(=O)[nH]1	90.3%
O=C1CCCC1n1cc(F)c(=O)[nH]c1=O (stereo not given)	65.5%
O=c1[nH]c(=O)n(C2CCCS2(=O)=O)cc1F (stereo not given)	92%
